System: Escherichia coli TOP10
Assay: shrunken log2 fold change of peptide-encoding DNA abundance (4.5 h post-induction vs induction); higher = less antimicrobial activity (less host growth inhibition)
Conditions: time post-induction: 4.5 h; library: site-saturation at positions 5, 18, 19, 20
Output class 1 for shrunken log2 fold change not less than -0.09; output class 0 otherwise.

Recorded results for 6 sequences are shown here.
>>> category("RRIRERPPRLPRPRPRPMQCPRP")
"class 0"
>>> category("RRIRIRPPRLPRPRPRPHCYPRP")
"class 0"
>>> category("RRIRGRPPRLPRPRPRPDTYPRP")
"class 1"
>>> category("RRIRERPPRLPRPRPRPIKSPRP")
"class 0"
>>> category("RRIRWRPPRLPRPRPRPLNKPRP")
"class 0"
>>> category("RRIRWRPPRLPRPRPRPFLKPRP")
"class 0"

Given RRIRMRPPRLPRPRPRPKHHPRP , state whether its shrunken log2 fold change is at least -0.09.
class 1

Given RRIRVRPPRLPRPRPRPFFYPRP , state whether its shrunken log2 fold change is at least -0.09.
class 1

Given RRIRMRPPRLPRPRPRPSQNPRP , state whether its shrunken log2 fold change is at least -0.09.
class 1

Given RRIRFRPPRLPRPRPRPFATPRP , state whether its shrunken log2 fold change is at least -0.09.
class 0

Given RRIRQRPPRLPRPRPRPHQAPRP , state whether its shrunken log2 fold change is at least -0.09.
class 0

Given RRIRHRPPRLPRPRPRPCIHPRP , state whether its shrunken log2 fold change is at least -0.09.
class 0

Given RRIRCRPPRLPRPRPRPKWFPRP , state whether its shrunken log2 fold change is at least -0.09.
class 1

Given RRIRERPPRLPRPRPRPLKIPRP , state whether its shrunken log2 fold change is at least -0.09.
class 0

Given RRIRHRPPRLPRPRPRPAYMPRP , state whether its shrunken log2 fold change is at least -0.09.
class 1

Given RRIRMRPPRLPRPRPRPMTGPRP , state whether its shrunken log2 fold change is at least -0.09.
class 1

Given RRIRNRPPRLPRPRPRPIIMPRP , state whether its shrunken log2 fold change is at least -0.09.
class 0

Given RRIRMRPPRLPRPRPRPINAPRP , state whether its shrunken log2 fold change is at least -0.09.
class 0

Given RRIRQRPPRLPRPRPRPIPPPRP , state whether its shrunken log2 fold change is at least -0.09.
class 1

Given RRIRGRPPRLPRPRPRPMITPRP , state whether its shrunken log2 fold change is at least -0.09.
class 1

Given RRIRYRPPRLPRPRPRPQVKPRP , state whether its shrunken log2 fold change is at least -0.09.
class 0

###

Test system: Escherichia coli TOP10;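 note: peptides expressed intracellularly from a pBAD plasmid library in pooled LB shake-flask culture, induced with 0.3% L-arabinose, DNA abundance read by NGS, three biological replicates, DESeq2 with apeglm shrinkage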
Assay: shrunken log2 fold change of peptide-encoding DNA abundance (4.5 h post-induction vs induction); higher = less antimicrobial activity (less host growth inhibition)
Conditions: time post-induction: 4.5 h; library: site-saturation at positions 5, 18, 19, 20
Each record's shrunken log2 fold change is compared with class 1: < -0.3; class 2: ≥ -0.3 and < -0.01; class 3: ≥ -0.01 to give its class.

>>> category("RRIRLRPPRLPRPRPRPWLHPRP")
"class 2"
>>> category("RRIRSRPPRLPRPRPRPVIFPRP")
"class 1"
>>> category("RRIRTRPPRLPRPRPRPCMNPRP")
"class 1"

Category of RRIRPRPPRLPRPRPRPKNFPRP , please.
class 2

Category of RRIRKRPPRLPRPRPRPMHNPRP , please.
class 2

Category of RRIRFRPPRLPRPRPRPFWIPRP , please.
class 1
